assayed.system: Recombinant human TDO comprising amino acids 19-407 (Homo sapiens (Human))
assay.comment: TDO2 enzymatic assay (TDO inhibitory activity)
Format: biochemical
conditions.used: 15 nM enzyme, 200 μM L-tryptophan, pH7, 30 min pre-incubation, NFK quantified by LCMS; mean values if measured multiple times; read-out: hTDO activity (IC50 in nM)
measure: IC50 (nM)

Answered cases to consult:
INSERT INTO measurements (compound, numeric_readout) VALUES
  ('CC1(C)CCCC(CC(O)c2c(C3CC3)sc3cncn23)C1 (stereo not drawn)', 546),
  ('O[C@H](c1c(C(F)(F)F)sc2cncn12)C1CCCCC1 [Example 63a]', 341),
  ('CC1(C)CCC(CC(O)c2c(C(F)(F)F)sc3cncn23)CC1 (racemic)', 7280),
  ('OC1CCC(C(O)c2c(C3CC3)sc3cncn23)CC1 (racemic)', 2640);

A = O[C@H](c1c(C2CCCC2)sc2cncn12)C1CCCCC1
B = CC1CCC(C(O)c2c(C(F)(F)F)sc3cncn23)CC1 (racemic)
C = Cc1ccccc1CC(O)c1c(C2CC2)sc2cncn12 (racemic)
D = CC1(C)CC[C@H]([C@H](O)c2c(C3CC3)sc3cncn23)C1 [Example 47b]
E = OC(CC1CCCC1)c1c(C2CC2)sc2cncn12 (racemic)
Qu. Put the entries in order of IC50, starting with the largest number. List the labels according to the requested ordering.
Ans. B, C, E, D, A

###

assayed.system: Recombinant human TDO comprising amino acids 19-407 (Homo sapiens (Human), UniProt P48775)
Sequence (P48775 19-406 limits assumed): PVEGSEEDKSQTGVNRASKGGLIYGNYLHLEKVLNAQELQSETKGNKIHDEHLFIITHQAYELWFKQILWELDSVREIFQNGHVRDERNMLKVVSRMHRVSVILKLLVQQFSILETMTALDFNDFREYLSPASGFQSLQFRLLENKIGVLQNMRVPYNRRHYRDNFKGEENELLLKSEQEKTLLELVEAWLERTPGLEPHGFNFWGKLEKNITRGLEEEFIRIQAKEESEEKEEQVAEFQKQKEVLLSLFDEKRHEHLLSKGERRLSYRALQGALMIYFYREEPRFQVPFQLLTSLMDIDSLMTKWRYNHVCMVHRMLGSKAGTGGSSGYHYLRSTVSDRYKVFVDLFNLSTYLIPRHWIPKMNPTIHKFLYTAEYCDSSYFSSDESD
assay.comment: TDO2 enzymatic assay (TDO inhibitory activity)
Type: biochemical
conditions.used: 15 nM enzyme, 200 μM L-tryptophan, pH7, 30 min pre-incubation, NFK quantified by LCMS; mean values if measured multiple times; read-out: hTDO activity (IC50 in nM)
measure: IC50 (nM)

INSERT INTO results (molecule, numeric_readout) VALUES
  ('CC(C)(C)C1CCC(C(O)c2c(C3CC3)sc3cncn23)CC1 (racemic)', 2780),
  ('OC(c1c(Cl)sc2cncn12)C1CCCCCC1 (racemic)', 301),
  ('CCc1cccc(C(O)c2c(C3CC3)sc3cncn23)c1 (racemic)', 1850),
  ('CC1(C)CCC(C(O)c2c(C3CC3)sc3cncn23)C1 (stereo not drawn)', 287),
  ('O[C@@H](CC1CCCCC1)c1c(C2CCCC2)sc2cncn12 [Example 10a]', 164);

A = OC(CC1CCC(C2CCCC2)CC1)c1c(C2CC2)sc2cncn12 (racemic)
B = CC1CCC(C(O)c2c(C3CC3)sc3cncn23)CC1 (racemic)
Qu. Hi there, can you help? I need to know whether A or B has lower measured IC50. Give the label of your selection.
Ans. B
(B: 383 nM, A: 2800 nM)

1 = CC1(c2sc3cncn3c2C(O)C2CCCCC2)CC1 (racemic)
2 = CCC1CCCC1C(O)c1c(C2CC2)sc2cncn12 (stereo not drawn)
Qu. Compare the recorded IC50 of 1 and 2 ; state which is larger. Returns: label corresponding to the selected item.
Ans. 1
(1: 2260 nM, 2: 228 nM)

###

assayed.system: Recombinant full-length human IDO1 (Homo sapiens (Human), UniProt P14902)
Sequence (P14902 whole entry): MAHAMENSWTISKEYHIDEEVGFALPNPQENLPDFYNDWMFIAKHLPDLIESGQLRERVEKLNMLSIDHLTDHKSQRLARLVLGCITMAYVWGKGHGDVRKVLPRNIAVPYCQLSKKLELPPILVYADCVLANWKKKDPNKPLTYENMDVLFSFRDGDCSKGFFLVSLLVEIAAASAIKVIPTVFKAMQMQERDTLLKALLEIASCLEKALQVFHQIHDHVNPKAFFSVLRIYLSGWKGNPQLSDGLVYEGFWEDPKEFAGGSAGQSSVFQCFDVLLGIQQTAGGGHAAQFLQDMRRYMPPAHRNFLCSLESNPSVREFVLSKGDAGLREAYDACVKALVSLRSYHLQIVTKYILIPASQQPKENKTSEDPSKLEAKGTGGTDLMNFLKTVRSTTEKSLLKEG
assay.comment: IDO1 enzymatic assay (IDO inhibitory activity)
Assay type: biochemical
conditions.used: 2 nM enzyme, 5 μM L-tryptophan, pH6.5, 30 min pre-incubation, NFK quantified by LCMS; mean values if measured multiple times; read-out: hIDO activity (IC50 in nM)
measure: IC50 (nM)

INSERT INTO measurements (compound, numeric_readout) VALUES
  ('CCC(C1CCCCC1)C(O)c1c(C2CC2)sc2cncn12 (centres unmarked)', 1570),
  ('CC(C)n1cc(C(O)c2c(C3CC3)sc3cncn23)nn1 (racemic)', 304),
  ('COC1CCC(CC(O)c2c(C3CC3)sc3cncn23)CC1 (racemic)', 11.3);

1 = Cc1ccc(-c2sc3cncn3c2C(O)C2CCCCC2)cc1 (racemic)
2 = OC(c1c(Cl)sc2cncn12)C1CCCCCC1 (racemic)
Qu. Select the item whose IC50 value is smaller, choosing between 1 and 2 . Label of pick, please.
Ans. 2
